Assay: E. coli DRC41 culture turbidity changes, primary screen, E. coli filamentation inducer project, strain DRC41, OD650, 48 h (AID 1152);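 note: E. coli MC1000 strain DRC41 lacking acrAB efflux pump and sulA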
Conditions: E. coli DRC41 (acrAB sulA), higher = more signal, called active from +8 up or from −8 down
Would you mind telling me the reported z-score of each entry?
Lab note: write the figure by itself, no unit.

Ask: Given the entry CC(C)C(=C=CC[C@H](O)c1cccc(OCCO)c1)C[C@H](O)COCc1ccccc1 , report its measured z-score.
Reply: 0.142

Ask: Param item: COCCOC(=O)N1C(=O)[C@@]2(c3cc(C#CC4(O)CCCCCC4)ccc31)[C@H](C(=O)N1CCCCCCC1)[C@H]1C(=O)O[C@H](c3ccccc3)[C@H](c3ccccc3)N1[C@@H]2c1ccccc1OCCO
Reply: 0.139

Ask: Param item: CC(=O)NCCCC[C@@H]1NC(=O)[C@@H]2C[C@H](C(=O)NCCCCN(C)C)[C@H](c3ccc(O)cc3)N2C1=O
Reply: 1.62

Ask: Param item: O=C1C[C@@](C(=O)NC2CC2)(c2ccc([N+](=O)[O-])cc2)[C@@H](c2ccc(CO)cc2)N1CC12CC3CC(CC(C3)C1)C2
Reply: 0.904

Ask: Param item: COC(=O)C(CC#Cc1ccc2c(c1)[C@]1(C(=O)N2)[C@H](c2ccc(OCCO)cc2)N2[C@H](c3ccccc3)[C@H](c3ccccc3)OC(=O)[C@H]2[C@@H]1C(=O)NC[C@H](O)c1ccccc1)C(=O)OC
Reply: 1.57

Ask: Param item: COCCCNC(=O)[C@@]1(CCC(=O)OC(C)(C)C)N=C(c2ccc(OCCCO)cc2)O[C@H]1c1ccccc1CN=[N+]=[N-]
Reply: 0.369

Ask: Param item: C=CCOC(=O)[C@H]1[C@@H]2C(=O)O[C@@H](c3ccccc3)[C@@H](c3ccccc3)N2[C@@H](c2ccc(OCCOC(=O)[C@@H]3C[C@@H]4C(=O)NCC(=O)N4[C@@H]3c3ccc(O)cc3)cc2)[C@]12C(=O)Nc1ccccc12
Reply: 2.47
